# key: entry, value: Bliss excess
- Test system: HOS (Osteosarcoma)
- protocolNotes: Bliss excess, mean over the matrix (fraction); higher = more synergy;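 further: after 72 h of two-drug dosing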
Answer field: number only, no words.

Consider the reported Bliss excess for these molecules:
INSERT INTO assay_data (molecule, endpointvalue) VALUES
  ('COc1cccc(OCCCN)c1-c1cc(Nc2cnc(C#N)cn2)n[nH]1 [Prexasertib] + Cc1cc2ncnn2cc1Nc1ncc2c(n1)n(C1CCOCC1)c(=O)n2C [AZD7648] (first compound max 1 µM, 7x7, partner max 10 µM)', -0.0393),
  ('C[C@@H](Nc1cc(F)cc(F)c1)c1cc(C(=O)N(C)C)cc2c(=O)cc(N3CCOCC3)oc12 [AZD8186] + C1CN(CCC1(C(=O)N[C@@H](CCO)C2=CC=C(C=C2)Cl)N)C3=NC=NC4=C3C=CN4 [AZD5363] (first compound max 10 µM, 7x7, partner max 10 µM)', -0.0447),
  ('Cc1c2c(nn1C)CSCc1cc(n(C)n1)CSc1cc(c3ccccc3c1)OCCCc1c(C(=O)O)n(C)c3c-2c(Cl)ccc13 [AZD5991] + CN(C)CCCOc1ccc(-c2ccc3ncc4c(c3c2)n(C2CCOCC2)c(=O)n4C)cn1 [AZD0156] (first compound max 1 µM, 7x7, partner max 1 µM)', -0.0026);

Could you now consider this next molecule?
[in] Given the molecule COc1nnc2ccc(N3CCC(c4ccc(OCCN5CCN(C)C(=O)[C@H]5C)cc4)CC3)nn12 [AZD5153] + Cc1c2c(nn1C)CSCc1cc(n(C)n1)CSc1cc(c3ccccc3c1)OCCCc1c(C(=O)O)n(C)c3c-2c(Cl)ccc13 [AZD5991] (first compound max 1 µM, 7x7, partner max 1 µM) , what is its reported Bliss excess?
[out] 0.0009

* * *

- Tested on: 42-MG-BA (Glioblastoma)
- protocolNotes: Bliss excess, mean over the matrix (fraction); higher = more synergy
# key: entry, value: Bliss excess
Answer field: number only, no words.

INSERT INTO assay_data (compound, endpointvalue) VALUES
  ('Cc1cc2ncnn2cc1Nc1ncc2c(n1)n(C1CCOCC1)c(=O)n2C [AZD7648] + CCN(CCO)CCCOc1ccc2c(Nc3cc(CC(=O)Nc4cccc(F)c4)[nH]n3)ncnc2c1 [AZD2811] (first compound max 10 µM, 7x7, partner max 1 µM)', 0.0312),
  ('CC(=O)c1c(C)c2cnc(Nc3ccc(N4CCNCC4)cn3)nc2n(C2CCCC2)c1=O [Palbociclib] + CN(CC[C@H](CSC1=CC=CC=C1)NC2=C(C=C(C=C2)S(=O)(=O)NC(=O)C3=CC=C(C=C3)N4CCC(CC4)[C@H](C5=CC=CC=C5C6=CC=C(C=C6)Cl)O)S(=O)(=O)C(F)(F)F)CCO [AZD4320] (first compound max 10 µM, 7x7, partner max 1 µM)', -0.061);

Could you now consider this next compound?
[in] Given the compound CC1(C)CCC(CN2CCN(c3ccc(C(=O)NS(=O)(=O)c4ccc(NCC5CCOCC5)c([N+](=O)[O-])c4)c(Oc4cnc5[nH]ccc5c4)c3)CC2)=C(c2ccc(Cl)cc2)C1 [Venetoclax] + CN(C)CCCOc1ccc(-c2ccc3ncc4c(c3c2)n(C2CCOCC2)c(=O)n4C)cn1 [AZD0156] (first compound max 1 µM, 7x7, partner max 1 µM) , what is its reported Bliss excess?
[out] 0.0057
